The values you see were collected from patent US11311013B2.

tested on: Two-spotted spider mite (Tetranychus urticae); assay: Acaricidal action on two-spotted spider mite, kidney bean leaf disk spray; assay type: in vivo; conditions: 500 ppm, 25° C., two days after treatment
Readout kind: acaricidal efficacy (corrected mortality rate) activity level

| Molecule | Result |
| --- | --- |
| CCS(=O)(=O)n1c(-c2ccc(OCCC(C)(C)C)nc2)nc2ccccc21 | D or higher |
| CCS(=O)(=O)n1c(-c2cnc(OCC(F)(F)C(F)F)c(Cl)c2)nc2ccccc21 | D or higher |
| CCCOc1ccc(-c2nc3ccccc3n2S(=O)(=O)CC)cn1 | D or higher |
| CCS(=O)(=O)n1c(-c2ccc(OCCOC)nc2)nc2ccccc21 | D or higher |
| CCS(=O)(=O)n1c(-c2cnc(OCC(F)(F)C(F)(F)F)c(Cl)c2)nc2ccccc21 | D or higher |
| CCS(=O)(=O)n1c(-c2ccc(OCC(F)(F)C(F)C(F)(F)F)nc2)nc2ccccc21 (stereo not drawn) | D or higher |
| CCCCCCOc1ccc(-c2nc3ccccc3n2S(=O)(=O)CC)cn1 | D or higher |
| CCS(=O)(=O)n1c(-c2ccc(SC3CCCCC3)nc2)nc2ccccc21 | D or higher |
| CCS(=O)(=O)n1c(-c2ccc(OCc3ccc(SC(F)(F)F)cc3)nc2)nc2ccccc21 | D or higher |
